- Target desc: PDE6
- Construct: Ki; other: PDE6
- Procedure text: PDE panel inhibitory constant (Ki) determination
Measured parameter: pKi
Numbers only, as −log10 of the molar value.

Sample CN1C(=O)c2c(nn(Cc3ccc(C4CCCN4C)cc3)c2Nc2ccc(F)cc2)N2CC(C)(C)N=C12 (stereo not shown) [Compound 1] — what was its pKi?
4.85

---

- Target desc: PDE3B (Homo sapiens, UniProt Q13370)
- Sequence (Q13370 whole entry, species assumed): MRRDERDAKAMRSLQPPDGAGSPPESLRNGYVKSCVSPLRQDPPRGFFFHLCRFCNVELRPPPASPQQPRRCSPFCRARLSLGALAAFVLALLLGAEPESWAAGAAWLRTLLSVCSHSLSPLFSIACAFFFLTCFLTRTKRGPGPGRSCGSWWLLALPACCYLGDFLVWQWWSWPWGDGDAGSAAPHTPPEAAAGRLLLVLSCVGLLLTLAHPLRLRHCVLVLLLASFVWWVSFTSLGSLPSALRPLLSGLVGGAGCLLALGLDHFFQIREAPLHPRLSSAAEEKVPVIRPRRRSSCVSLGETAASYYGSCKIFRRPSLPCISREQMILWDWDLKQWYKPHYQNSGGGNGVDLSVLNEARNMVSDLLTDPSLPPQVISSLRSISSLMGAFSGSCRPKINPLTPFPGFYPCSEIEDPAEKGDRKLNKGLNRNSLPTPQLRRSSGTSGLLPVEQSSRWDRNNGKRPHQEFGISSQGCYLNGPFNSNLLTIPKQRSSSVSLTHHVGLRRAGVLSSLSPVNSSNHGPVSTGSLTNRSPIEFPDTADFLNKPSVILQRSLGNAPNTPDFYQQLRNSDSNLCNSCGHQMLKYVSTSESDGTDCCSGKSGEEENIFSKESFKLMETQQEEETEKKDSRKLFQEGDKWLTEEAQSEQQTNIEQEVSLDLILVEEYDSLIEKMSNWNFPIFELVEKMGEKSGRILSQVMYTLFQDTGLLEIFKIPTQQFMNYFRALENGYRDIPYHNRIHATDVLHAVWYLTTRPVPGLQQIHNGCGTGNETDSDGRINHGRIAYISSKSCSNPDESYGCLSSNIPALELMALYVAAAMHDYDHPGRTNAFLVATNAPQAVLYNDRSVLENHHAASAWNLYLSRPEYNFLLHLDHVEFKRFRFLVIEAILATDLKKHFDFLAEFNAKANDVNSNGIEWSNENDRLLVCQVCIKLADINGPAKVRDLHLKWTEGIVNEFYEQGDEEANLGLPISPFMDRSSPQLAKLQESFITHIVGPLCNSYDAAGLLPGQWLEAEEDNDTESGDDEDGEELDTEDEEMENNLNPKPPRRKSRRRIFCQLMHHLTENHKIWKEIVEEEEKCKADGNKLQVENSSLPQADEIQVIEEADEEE
Measured parameter: pKi
Give bare numbers, as −log10 of the molar value.

Please look up its pKi: CN1C(=O)c2c(nn(Cc3ccc(C4CCCN4C)cc3)c2Nc2ccc(F)cc2)N2CC(C)(C)N=C12 (stereo not shown) [Compound 1]
4.10
